biological target: Sphingosine 1-phosphate receptor 1 (Homo sapiens); assay: potentiators of S1P1 agonist response, dose response, cell-based, potentiator mode, 60K MLSMR set (AID 466)
Reported Property: pEC50
// pEC50 here means minus log10 of the molar concentration (mol/L)

Molecule | pEC50
O=S(=O)(NCc1cn2ccsc2n1)c1ccc(Oc2ccccc2)cc1 | 5.30
COCCn1c(C)cc(C(=O)CSc2nnc(-c3cccnc3)n2-c2ccccc2F)c1C | 5.91
COc1ccc(-c2nc(-c3ccncc3)no2)cc1OC | 5.92
CC(=O)Nc1cc(OC(C)=O)c2nonc2c1OC(C)=O | 5.24
CCCCc1ccc(C2C(C#N)C(=N)SC(=N)C2C#N)s1 (stereo not given) | 4.86
CC(=O)Oc1ccc(-n2c(O)c3c(c2O)C2(C)C=CC3(C)O2)cc1 | 4.87
Cc1cccc(OCCCCc2c(C)n[nH]c2C)c1C | 5.31
COc1cccc2sc(Nc3nc(-c4ccccn4)cs3)nc12 | 5.58
COC(=O)c1cc(NCc2ccccc2F)ccc1N1CCOCC1 | 5.26
Cc1ccc(-c2nnc(SCc3ccccc3F)o2)cc1 | 5.94

Please report the measured pEC50 for "c1ccc(CNc2ncnc3ccccc23)cc1" tested on Sphingosine 1-phosphate receptor 1 (Homo sapiens). 5.37

Enter recorded pEC50 with Sphingosine 1-phosphate receptor 1 (Homo sapiens) for "O=S(=O)(NCc1ccncc1)c1ccc(Br)s1" here. 5.66

Determine reported pEC50 for "COc1ccc(-c2n[nH]cc2-c2ccc3c(c2)OCCO3)c(O)c1" ; test system: Sphingosine 1-phosphate receptor 1 (Homo sapiens). 5.83

State, for Sphingosine 1-phosphate receptor 1 (Homo sapiens), measured pEC50 of the molecule listed here: "O=C(CSc1nc2ccccc2o1)Nc1ccc(N2CCOCC2)c(Cl)c1" 5.90

---

biological target: Sphingosine 1-phosphate receptor 1 (Homo sapiens, UniProt P21453); assay: potentiators of S1P1 agonist response, dose response, cell-based, potentiator mode, 60K MLSMR set (AID 466)
Sequence (P21453 whole entry): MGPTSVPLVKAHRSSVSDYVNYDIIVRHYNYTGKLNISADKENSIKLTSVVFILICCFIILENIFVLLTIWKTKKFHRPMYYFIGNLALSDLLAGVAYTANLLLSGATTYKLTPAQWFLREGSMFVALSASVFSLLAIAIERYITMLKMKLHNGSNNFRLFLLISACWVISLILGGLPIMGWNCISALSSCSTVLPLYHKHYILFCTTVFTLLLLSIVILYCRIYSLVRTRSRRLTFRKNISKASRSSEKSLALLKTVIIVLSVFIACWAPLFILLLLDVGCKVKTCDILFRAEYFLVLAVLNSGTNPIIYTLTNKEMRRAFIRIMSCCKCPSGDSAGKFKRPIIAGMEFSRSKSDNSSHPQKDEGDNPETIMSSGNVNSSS
Threshold 9 µM: EC50 strictly smaller gives Met, otherwise Not met.

Molecule | Discrete Label
Cc1ccc2c(c1)N(CC(=O)Nc1ccc3c(c1)OCCO3)C(=O)CO2 [MLS000074457] | Not met
CC(C)COC(=O)NCCOC(=O)Nc1cccc(Cl)c1 | Met
COc1ccc(C(=O)C2C(=O)C(=O)N(CC3CCCO3)C2c2cccc(OC)c2)cc1 (stereo not drawn) | Not met

Does this molecule meet the criterion EC50 < 9 µM? "CCOc1ccc(-c2nc(-c3ccccc3)no2)cc1OCC" Met

# TODO verify EC50 < 9 µM strictly for this molecule: "Cc1ccc(-c2n[nH]c(=S)n2C)cc1" Not met

For CC(C)Cc1cc(C(=O)Nc2sc3c(c2C#N)CCCC3)no1 [MLS000116410] , is the recorded EC50 below the cut-off of 9 µM? Not met

---

molecular target: Sphingosine 1-phosphate receptor 1 (Homo sapiens); experiment: potentiators of S1P1 agonist response, dose response, cell-based, potentiator mode, 60K MLSMR set (AID 466); details: inactive by the depositor's call
Catalogue of compounds with associated pEC50
Here pEC50 is given on a logarithmic scale as minus log10 of the concentration in mol/L.

Compound | Experimental Value
Cc1ccc(C(=O)Nc2nc(COc3ccccc3)cs2)s1 | 4.95

Attention now turns to another entry.
Return pEC50 (reported value) for this compound: "CC1CCN(S(=O)(=O)c2ccc3c(c2)oc(=O)n3CC(=O)NCc2ccc3c(c2)OCO3)CC1" 4.83
